Data credit: patent US20250160350A1

targetOfAssay: human recombinant β-glucocerebrosidase (Cerezyme) (Homo sapiens, UniProt P04062, R534H)
Construct: purchased Genzyme, Europe
Sequence (P04062 40-536 R534H): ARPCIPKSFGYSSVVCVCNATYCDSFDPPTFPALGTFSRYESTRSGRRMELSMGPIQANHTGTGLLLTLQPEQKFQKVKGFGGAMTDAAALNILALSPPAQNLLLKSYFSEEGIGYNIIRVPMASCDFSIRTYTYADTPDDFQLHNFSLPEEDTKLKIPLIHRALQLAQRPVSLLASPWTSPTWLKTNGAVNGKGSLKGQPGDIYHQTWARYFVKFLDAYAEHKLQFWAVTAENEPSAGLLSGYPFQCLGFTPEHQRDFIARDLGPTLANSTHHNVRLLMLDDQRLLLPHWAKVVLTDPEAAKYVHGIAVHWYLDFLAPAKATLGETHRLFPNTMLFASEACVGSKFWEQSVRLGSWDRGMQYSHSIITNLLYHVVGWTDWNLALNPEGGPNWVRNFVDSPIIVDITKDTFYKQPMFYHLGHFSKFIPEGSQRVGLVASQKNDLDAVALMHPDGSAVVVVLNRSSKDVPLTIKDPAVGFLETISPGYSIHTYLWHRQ
methodSummary: β-glucocerebrosidase assay (Cerezyme/imiglucerase, PNP β-glucopyranoside, pH 5.9)
Format: biochemical
testConditions: in vitro
measuredQuantity: effect on β-glucocerebrosidase activity, in words

INSERT INTO measurements (moleculesmiles, measured) VALUES
  ('O=C(/C=C/c1ccc(O)c(O)c1)O[C@@H]1C[C@](O)(C(=O)O)C[C@@H](O)[C@H]1O', 'inhibited the enzyme'),
  ('O=c1c(O)c(-c2ccc(O)c(O)c2)oc2cc(O)cc(O)c12', 'inhibited the enzyme');
